experiment: Drug uptake in cannulated Sprague-Dawley rat liver at 15 mg/kg administered via oral gavage measured at 24 hrs post dose by LC/MS/MS analysis; assay type: ADME, organism-based; conditions: read-out: Drug uptake
measured-property: concentration at 24 h (µM)

input-smiles: CC[C@@H]1C[C@]1(NC(=O)[C@@H]1C[C@@H](Oc2ncc(OC)c3ccc(Cl)cc23)CN1C(=O)[C@@H](NC(=O)OC(C)(C)C)C(C)(C)C)C(=O)NS(=O)(=O)C1CC1
measured-property: concentration at 24 h
measurement: 40

A: COc1cnc(O[C@@H]2C[C@@H](C(=O)N[C@]3(C(=O)NS(=O)(=O)C4CC4)C[C@H]3C3CC3)N(C(=O)[C@@H](NC(=O)O[C@H](C)C(F)(F)F)C3CCCC3)C2)c2cc(Cl)ccc12
B: COc1cnc(O[C@@H]2C[C@@H](C(=O)N[C@]3(C(=O)NS(=O)(=O)C4CC4)C[C@H]3C3CC3)N(C(=O)[C@@H](NC(=O)O[C@H](C)C(F)(F)F)C(C)(C)C)C2)c2ccc(Cl)cc12
C: COc1cnc(O[C@@H]2C[C@@H](C(=O)N[C@]3(C(=O)NS(=O)(=O)C4CC4)C[C@H]3C3CC3)N(C(=O)[C@@H](NC(=O)O[C@H](C)C(F)(F)F)C(C)(C)C)C2)c2cccc(Cl)c12
Task field, ranking: reported concentration at 24 h, descending order. Your task in answering is to list the labels in the requested order. C, B, A
(C: 49.3 µM, B: 30.7 µM, A: 11.5 µM)

====

assay: Half life in cynomolgus monkey plasma at 3 mg/kg, iv administered as 5 mins infusion by LC/MS/MS analysis; type: ADME, organism-based, Macaca fascicularis
measured-property: half-life (h)

Consider the following illustrative entries.
input-smiles: COc1cnc(O[C@@H]2C[C@@H](C(=O)N[C@]3(C(=O)NS(=O)(=O)C4CC4)C[C@H]3C3CC3)N(C(=O)[C@@H](NC(=O)O[C@H](C)C(F)(F)F)C(C)(C)C)C2)c2cc(Cl)ccc12
half-life / h: 1.2

input-smiles: C=C[C@@H]1C[C@]1(NC(=O)[C@@H]1C[C@@H](Oc2ncc(OC)c3ccc(Cl)cc23)CN1C(=O)[C@@H](NC(=O)OC(C)(C)C)C(C)(C)C)C(=O)NS(=O)(=O)C1CC1
half-life / h: 1

a: COc1cnc(O[C@@H]2C[C@@H](C(=O)N[C@]3(C(=O)NS(=O)(=O)C4CC4)C[C@H]3C3CC3)N(C(=O)[C@@H](NC(=O)O[C@H](C)C(F)(F)F)C3CCCCC3)C2)c2cc(Cl)ccc12
b: COc1cnc(O[C@@H]2C[C@@H](C(=O)N[C@]3(C(=O)NS(=O)(=O)C4CC4)C[C@H]3C3CC3)N(C(=O)[C@@H](NC(=O)O[C@H](C)C(F)(F)F)C3CCCC3)C2)c2cc(Cl)ccc12
Which shows the larger half-life value: a or b ? // output: label of the selected item a

====

assay: AUC in cynomolgus monkey plasma at 10 mg/kg administered via oral gavage measured up to 24 hrs post dose by LC/MS/MS analysis; type: ADME, organism-based, Macaca fascicularis; parameters: dose 10 mg/kg, time < 24 hr, route oral; conditions: plasma
measured-property: AUC at 24 h (µM·h)

P: COc1cnc(O[C@@H]2C[C@@H](C(=O)N[C@]3(C(=O)NS(=O)(=O)C4CC4)C[C@H]3C3CC3)N(C(=O)[C@@H](NC(=O)O[C@H](C)C(F)(F)F)C3CCCC3)C2)c2cc(Cl)ccc12
Q: COc1cnc(O[C@@H]2C[C@@H](C(=O)N[C@]3(C(=O)NS(=O)(=O)C4CC4)C[C@H]3C3CC3)N(C(=O)[C@@H](NC(=O)O[C@H](C)C(F)(F)F)C3CCCCC3)C2)c2cc(Cl)ccc12
Response body: label of entry with the larger AUC at 24 h; valid values P , Q . Indicate which entry you chose by stating its label. Q

====

molecular target: Genome polyprotein (GB virus-B)
Sequence (Q69422 941-1564 limits assumed): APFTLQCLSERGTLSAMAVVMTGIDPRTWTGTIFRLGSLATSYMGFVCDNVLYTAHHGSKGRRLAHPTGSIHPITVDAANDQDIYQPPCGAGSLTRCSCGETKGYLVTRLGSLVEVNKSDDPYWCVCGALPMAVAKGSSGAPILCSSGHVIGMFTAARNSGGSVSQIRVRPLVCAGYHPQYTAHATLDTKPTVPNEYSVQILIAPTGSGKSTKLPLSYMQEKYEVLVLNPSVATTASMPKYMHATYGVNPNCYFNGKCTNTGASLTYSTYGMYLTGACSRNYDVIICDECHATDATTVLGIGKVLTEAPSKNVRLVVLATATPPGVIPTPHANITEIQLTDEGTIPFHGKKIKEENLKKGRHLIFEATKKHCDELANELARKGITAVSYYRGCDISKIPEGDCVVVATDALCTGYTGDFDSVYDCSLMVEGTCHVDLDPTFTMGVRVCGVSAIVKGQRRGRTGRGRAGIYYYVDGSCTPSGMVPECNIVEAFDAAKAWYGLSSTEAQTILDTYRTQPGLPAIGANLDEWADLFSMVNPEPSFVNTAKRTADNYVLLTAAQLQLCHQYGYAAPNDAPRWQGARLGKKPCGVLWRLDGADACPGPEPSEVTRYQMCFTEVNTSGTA
measured-property: IC50

Find IC50 (Genome polyprotein (GB virus-B)) for the entry `COc1cnc(O[C@@H]2C[C@@H](C(=O)N[C@]3(C(=O)NS(=O)(=O)C4CC4)C[C@H]3C3CC3)N(C(=O)[C@@H](NC(=O)O[C@H](C)C(F)(F)F)C3CCCCC3)C2)c2cc(Cl)ccc12` > 25 µM

====

assay: Half life in human liver microsomes; format: ADME
measured-property: half-life (h)

Some solved cases for reference:
input-smiles: COc1cnc(O[C@@H]2C[C@@H](C(=O)N[C@]3(C(=O)NS(=O)(=O)C4CC4)C[C@H]3C3CC3)N(C(=O)[C@@H](NC(=O)OC(C)(C)C)C(C)(C)C)C2)c2cc(Cl)ccc12
half-life, h: 1.38
//
input-smiles: COc1ccc2c(O[C@@H]3C[C@@H](C(=O)N[C@]4(C(=O)NS(=O)(=O)C5CC5)C[C@H]4C4CC4)N(C(=O)[C@@H](NC(=O)O[C@H](C)C(F)(F)F)C(C)(C)C)C3)nc(OC)cc2c1
half-life, h: 1.77
//
input-smiles: COc1cnc(O[C@@H]2C[C@@H](C(=O)N[C@]3(C(=O)NS(=O)(=O)C4CC4)C[C@H]3C3CC3)N(C(=O)[C@@H](NC(=O)O[C@H](C)C(F)(F)F)C3CCC3)C2)c2cc(Cl)ccc12
half-life, h: 1.85
//
input-smiles: COc1cnc(O[C@@H]2C[C@@H](C(=O)N[C@]3(C(=O)NS(=O)(=O)C4CC4)C[C@H]3C3CC3)N(C(=O)[C@@H](NC(=O)O[C@H](C)C(F)(F)F)C3CCCCC3)C2)c2cc(Cl)ccc12
half-life, h: 1.08
//
input-smiles: C=C[C@@H]1C[C@]1(NC(=O)[C@@H]1C[C@@H](Oc2ncc(OC)c3ccc(Cl)cc23)CN1C(=O)[C@@H](NC(=O)OC(C)(C)C)C(C)(C)C)C(=O)NS(=O)(=O)C1CC1
half-life, h: 0.667

P: COc1cnc(O[C@@H]2C[C@@H](C(=O)N[C@]3(C(=O)NS(=O)(=O)C4CC4)C[C@H]3C3CC3)N(C(=O)[C@@H](NC(=O)OC(C)C)C(C)(C)C)C2)c2cc(Cl)ccc12
Q: COc1cnc(O[C@@H]2C[C@@H](C(=O)N[C@]3(C(=O)NS(=O)(=O)C4CC4)C[C@H]3C(C)C)N(C(=O)[C@@H](NC(=O)OC(C)(C)C)C(C)(C)C)C2)c2cc(Cl)ccc12
R: COc1cnc(O[C@@H]2C[C@@H](C(=O)N[C@]3(C(=O)NS(=O)(=O)C4CC4)C[C@H]3C3CC3)N(C(=O)[C@@H](NC(=O)O[C@H](C)C(F)(F)F)C(C)(C)C)C2)c2cc(Cl)ccc12
S: C=C(C)[C@@H]1C[C@]1(NC(=O)[C@@H]1C[C@@H](Oc2ncc(OC)c3ccc(Cl)cc23)CN1C(=O)[C@@H](NC(=O)OC(C)(C)C)C(C)(C)C)C(=O)NS(=O)(=O)C1CC1
Highest half-life first, then in falling order down to the smallest. A ranking is expressed here by listing the labels in the requested order. R, Q, P, S

====

assay: Half life in Beagle dog plasma at 1 mg/kg, iv administered as 5 mins infusion by LC/MS/MS analysis; type: ADME, organism-based, Canis lupus familiaris
measured-property: half-life (h)

input-smiles: COc1cnc(O[C@@H]2C[C@@H](C(=O)N[C@]3(C(=O)NS(=O)(=O)C4CC4)C[C@H]3C3CC3)N(C(=O)[C@@H](NC(=O)O[C@H](C)C(F)(F)F)C3CCCC3)C2)c2cc(Cl)ccc12
measured-property: half-life
measurement: 5.6
//
input-smiles: C=C[C@@H]1C[C@]1(NC(=O)[C@@H]1C[C@@H](Oc2ncc(OC)c3ccc(Cl)cc23)CN1C(=O)[C@@H](NC(=O)OC(C)(C)C)C(C)(C)C)C(=O)NS(=O)(=O)C1CC1
measured-property: half-life
measurement: 1
//
input-smiles: COc1cnc(O[C@@H]2C[C@@H](C(=O)N[C@]3(C(=O)NS(=O)(=O)C4CC4)C[C@H]3C3CC3)N(C(=O)[C@@H](NC(=O)O[C@H](C)C(F)(F)F)C(C)(C)C)C2)c2cc(Cl)ccc12
measured-property: half-life
measurement: 6.7
//
input-smiles: COc1cnc(O[C@@H]2C[C@@H](C(=O)N[C@]3(C(=O)NS(=O)(=O)C4CC4)C[C@H]3C3CC3)N(C(=O)[C@@H](NC(=O)O[C@H](C)C(F)(F)F)C3CCCCC3)C2)c2cc(Cl)ccc12
measured-property: half-life
measurement: 5.1

====

assay: Oral bioavailability in cynomolgus monkey plasma at 10 mg/kg administered via gavage measured up to 24 hrs post dose by LC/MS/MS analysis; assay type: ADME, organism-based, Macaca fascicularis; settings: plasma
measured-property: bioavailability (%)

input-smiles: COc1cnc(O[C@@H]2C[C@@H](C(=O)N[C@]3(C(=O)NS(=O)(=O)C4CC4)C[C@H]3C3CC3)N(C(=O)[C@@H](NC(=O)O[C@H](C)C(F)(F)F)C3CCCCC3)C2)c2cc(Cl)ccc12
unit-of-measure: %
bioavailability: 15.4
//
input-smiles: COc1cnc(O[C@@H]2C[C@@H](C(=O)N[C@]3(C(=O)NS(=O)(=O)C4CC4)C[C@H]3C3CC3)N(C(=O)[C@@H](NC(=O)O[C@H](C)C(F)(F)F)C3CCCC3)C2)c2cc(Cl)ccc12
unit-of-measure: %
bioavailability: 21.9
